Data origin, for the record: the supplement of paper PMC7877785

test: self-splicing fitness, log relative to wild type (ln ratio); higher = more splicing; Tetrahymena group I intron in knt gene, E. coli kanamycin selection, DiMSum; sequences stand for … in CUCUCU…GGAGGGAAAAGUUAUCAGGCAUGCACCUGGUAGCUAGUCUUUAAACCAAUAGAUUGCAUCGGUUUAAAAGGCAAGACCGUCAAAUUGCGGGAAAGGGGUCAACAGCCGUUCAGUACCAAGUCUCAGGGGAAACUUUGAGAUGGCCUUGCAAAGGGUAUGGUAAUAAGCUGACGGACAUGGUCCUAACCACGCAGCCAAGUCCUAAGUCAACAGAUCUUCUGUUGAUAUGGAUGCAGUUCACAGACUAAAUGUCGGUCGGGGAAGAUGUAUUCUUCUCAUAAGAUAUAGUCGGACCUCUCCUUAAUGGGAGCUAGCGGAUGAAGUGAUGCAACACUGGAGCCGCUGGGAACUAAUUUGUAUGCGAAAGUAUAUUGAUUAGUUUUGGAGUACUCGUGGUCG; settings: 37 °C;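 note: selection with 25 µg/mL kanamycin versus none on LB agar overnight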
Parameter threshold = 0.2. Response is 1 (yes) when self-splicing fitness (ln) meets or exceeds it, else 0 (no).

sequence_content=CAGGAGCAAUAUUACGAUGG class_name="0 (no)"
sequence_content=AUUAAGCAAUAUUACGGACA class_name="0 (no)"
sequence_content=UAAUAGCAAUAUUACGGACC class_name="0 (no)"
sequence_content=UUUUAGCAAUAUUACGGACC class_name="0 (no)"
sequence_content=AGACAGCAAUAUUACGAGGA class_name="0 (no)"
sequence_content=AUUCAGCAAUAUUACGCAGU class_name="1 (yes)"
sequence_content=CAGAAGCAAUAUUACGGUCG class_name="1 (yes)"
sequence_content=GAGUAGCAAUAUUACGCCAU class_name="0 (no)"
